Hello, the source for this data is ChEMBL document CHEMBL3526005, in case you need it.

The reader will find reported concentration at 1 h values listed item by item below.
Assay: Drug uptake in 30 months-old Lister Hooded rat assessed as corrected brain concentration at 3 mg/kg, po after 1 hr treatment
Settings: in vivo
Observable: concentration at 1 h

>>> measured_result("Br.COc1ccc2c3c1O[C@H]1C[C@@H](O)C=C[C@@]31CCN(C)C2 [GALANTAMINE HYDROBROMIDE]")
"1140 nM"
>>> measured_result("Cl.Nc1c2c(nc3ccccc13)CCCC2 [TACRINE HYDROCHLORIDE]")
"1720 nM"

====

Assay: in vivo
Conditions: Lister Hooded, rat, po, 3 mg/kg
Observable: bioavailability

>>> measured_result("Cl.Nc1c2c(nc3ccccc13)CCCC2 [TACRINE HYDROCHLORIDE]")
"29%"
>>> measured_result("COc1cc2c(cc1OC)C(=O)C(CC1CCN(Cc3ccccc3)CC1)C2.Cl (stereo not drawn) [DONEPEZIL HYDROCHLORIDE]")
"43%"
>>> measured_result("Br.COc1ccc2c3c1O[C@H]1C[C@@H](O)C=C[C@@]31CCN(C)C2 [GALANTAMINE HYDROBROMIDE]")
"67%"
